target: farnesyl protein transferase (FPT), partially purified from rat brain (Rattus norvegicus, UniProt Q02293+Q04631); construct: were partially purified from rat brain by ammonium sulfate fractionation followed by Q-Sepharose; experiment: Inhibition of farnesyl protein transferase (transfer of [3H]farnesyl to Ras-CVLS); assay type: biochemical; conditions: enzyme inhibition; read-out: FPT IC50
Sequence (Q02293 whole entry, one chain of several): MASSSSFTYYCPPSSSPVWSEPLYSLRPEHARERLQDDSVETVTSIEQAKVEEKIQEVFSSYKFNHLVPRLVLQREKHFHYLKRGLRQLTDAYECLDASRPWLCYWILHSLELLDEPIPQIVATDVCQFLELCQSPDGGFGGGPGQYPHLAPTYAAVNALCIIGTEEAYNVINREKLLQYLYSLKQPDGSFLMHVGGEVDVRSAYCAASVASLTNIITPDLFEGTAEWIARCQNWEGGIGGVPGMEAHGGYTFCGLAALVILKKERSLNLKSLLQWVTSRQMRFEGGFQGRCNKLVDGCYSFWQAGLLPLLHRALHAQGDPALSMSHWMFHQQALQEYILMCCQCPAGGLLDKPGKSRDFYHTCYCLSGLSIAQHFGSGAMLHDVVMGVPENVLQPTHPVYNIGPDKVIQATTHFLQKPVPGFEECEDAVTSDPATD
property label: IC50 (nM)
Only the number, expressed in nM, is required.

Problem: Using the record for O=C(C(c1ccccc1)c1ccccc1)N1CCN(C2c3ccc(Cl)cc3CCc3cccnc32)CC1 (stereo not drawn) [Example 79] , state its measured IC50.
Solution: 2500

Problem: Using the record for O=C(Cc1cc[n+]([O-])cc1)N1CCN(C2c3ccc(Cl)cc3CCc3c(Cl)ccnc32)CC1 (stereo not drawn) [Example 426-A] , state its measured IC50.
Solution: 330

Problem: Using the record for CN1CCCC(CC(=O)N2CCC(=C3c4ccc(Cl)cc4CCc4cc(Cl)cnc43)CC2)C1 (stereo not drawn) [Example 411-V] , state its measured IC50.
Solution: 270

Problem: Using the record for O=C(Cc1ccncc1)N1CCC(=C2c3cc([N+](=O)[O-])c(Cl)cc3CCc3cccnc32)CC1 [Example 411-F] , state its measured IC50.
Solution: 1280

Problem: Using the record for CN1CCC(CC(=O)N2CCC(=C3c4ccc(Cl)cc4CCc4cc(Cl)cnc43)CC2)CC1 [Example 411-X] , state its measured IC50.
Solution: 450

Problem: Using the record for CC(C)(C(=O)N1CCC(=C2c3ccc(Cl)cc3CCc3cccnc32)CC1)c1cc[n+]([O-])cc1 [Example 411-E] , state its measured IC50.
Solution: 1140

* * *

biological target: farnesyl protein transferase (FPT), partially purified from rat brain (Rattus norvegicus, UniProt Q02293+Q04631); construct: were partially purified from rat brain by ammonium sulfate fractionation followed by Q-Sepharose; experiment: Inhibition of farnesyl protein transferase (transfer of [3H]farnesyl to Ras-CVLS); assay type: biochemical; conditions: Ras-CVLS farnesylation, partially purified rat brain FPT; read-out: FPT IC50
Kindly supply the reported IC50 values for the records listed here.
Only the number, expressed in µM, is required.

Problem: Using the record for CC(=O)Nc1cnc2c(c1)CCc1cc(Cl)ccc1C2=C1CCN(C(=O)Cc2ccncc2)CC1 , state its measured IC50.
Solution: 1000

Problem: Using the record for O=C(/C=C/c1cccnc1)N1CCC(=C2c3ccc(Cl)cc3CCc3cccnc32)CC1 , state its measured IC50.
Solution: 4.3

Problem: Using the record for CSc1ccc(C(=O)N2CCC(=C3c4ccc(Cl)cc4CCc4cccnc43)CC2)cc1 , state its measured IC50.
Solution: 6.9

Problem: Using the record for CC(C)(C)C(=O)N1CCC(=C2c3ccc(Cl)cc3CCc3cccnc32)CC1 , state its measured IC50.
Solution: 1.5

Problem: Using the record for O=C(Nc1cccnc1)N1CCC(=C2c3ccc(Cl)cc3CCc3c(Cl)ccnc32)CC1 , state its measured IC50.
Solution: 1.3

Problem: Using the record for CNc1ccc(C(=O)N2CCC(=C3c4ccc(Cl)cc4CCc4cccnc43)CC2)cn1 , state its measured IC50.
Solution: 7.2

Problem: Using the record for O=C(C1CCCO1)N1CCC(=C2c3ccc(Cl)cc3CCc3cccnc32)CC1 (stereo not drawn) [Example 19A] , state its measured IC50.
Solution: 5.1

Problem: Using the record for CN1CCC(CC(=O)N2CCN(C3c4ccc(Cl)cc4CCc4cccnc43)CC2)CC1 (stereo not drawn) , state its measured IC50.
Solution: 1.4

Problem: Using the record for CCc1cc2c(cc1Cl)C=Cc1cccnc1C2C1CCN(C(=O)Cc2cccnc2)CC1 (stereo not drawn) , state its measured IC50.
Solution: 2.8

Problem: Using the record for CC(=O)N1CCCC(CC(=O)N2CCN(C3c4ccc(Cl)cc4CCc4cccnc43)CC2)C1 (stereo not drawn) , state its measured IC50.
Solution: 3.1

Problem: Using the record for COC(=O)CSc1ccnc2c1CCc1cc(Cl)ccc1C2=C1CCN(C(=O)Cc2cccnc2)CC1 , state its measured IC50.
Solution: 2.3

Problem: Using the record for CC1(C2CCN(C(=O)Cc3cc[n+]([O-])cc3)CC2)c2ccc(Cl)cc2CCc2cc(Br)cnc21 (stereo not drawn) , state its measured IC50.
Solution: 0.084

Problem: Using the record for NCC(=O)N1CCC(=C2c3ccc(Cl)cc3CCc3cccnc32)CC1 , state its measured IC50.
Solution: 22.3

Problem: Using the record for CC(=O)SCC(C(=O)N1CCC(=C2c3ccc(Cl)cc3CCc3cccnc32)CC1)c1ccccc1 (stereo not drawn) , state its measured IC50.
Solution: 0.29

Problem: Using the record for O=C(Cc1ccncc1)N1CCC(=C2c3ccc(Cl)cc3CCc3ccc(Cl)nc32)CC1 , state its measured IC50.
Solution: 1.2

Problem: Using the record for O=C(c1ccncc1)N1CCC(=C2c3ccc(Cl)cc3CCc3cccnc32)CC1 , state its measured IC50.
Solution: 4.7

Problem: Using the record for O=C(Nc1cccnc1)N1CCC(=C2c3ccc(Cl)cc3CCc3c(On4nnc5ccccc54)ccnc32)CC1 , state its measured IC50.
Solution: 0.82

Problem: Using the record for O=C(Nc1ccccc1)N1CCC(C2c3ccccc3CCc3cccnc32)CC1 (stereo not drawn) , state its measured IC50.
Solution: 3.3

Problem: Using the record for CC(C)(C(=O)N1CCC(=C2c3ccc(Cl)cc3CCc3cccnc32)CC1)c1ccncc1 , state its measured IC50.
Solution: 1.34

Problem: Using the record for C=CC(=O)N1CCC(=C2c3ccc(Cl)cc3CCc3cccnc32)CC1 , state its measured IC50.
Solution: 14.2

Problem: Using the record for CNS(=O)(=O)c1ccc(C(=O)N2CCC(=C3c4ccc(Cl)cc4CCc4cccnc43)CC2)cc1 , state its measured IC50.
Solution: 3.9
